System: adhesion of intestinal epithelial cells (HT-29) and monocytic cells (U937) induced by TNF-α
assay overview: Inhibition of TNF-α-induced adhesion of monocytes and intestinal epithelial cells
Assay type: cell-based, human
run conditions: Homo sapiens; inhibition of adhesion by TNF-α
So I've got a bunch of compounds here, and I need their IC50 values.
Write the value in nM as a bare number.

IC50 for "Cc1nc(NC(=O)c2sc3cc(F)ccc3c2Cl)c(C)c(C)c1O" ? 230

IC50 for "Cc1ccc2[nH]c(C(=O)Nc3nc(C)c(O)c(C)c3C)cc2c1" ? 300

###

Tested on: adhesion of intestinal epithelial cells (HT-29) and monocytic cells (U937) induced by IL-6
assay overview: Inhibition of IL-6-induced adhesion of monocytes and intestinal epithelial cells
Type: cell-based, human
run conditions: Homo sapiens, 3 h; test drug 1 μM; IL-6 10 ng/mL; HT-29/U937; read-out: inhibitory activity (%)
Lab note: compare inhibition at 1 µM against 40%. Equal or greater, write satisfied. Smaller, write not satisfied.

Hi team, for "COc1ccc2c(Cl)c(C(=O)Nc3nc(C)c(O)c(C)c3C)sc2c1" , is the recorded inhibition at 1 µM at or above 40%? not satisfied

Hi team, for "Cc1nc(NC(=O)c2cc3ccccc3s2)c(C)c(C)c1O" , is the recorded inhibition at 1 µM at or above 40%? not satisfied

Hi team, for C[C@@H]1CCN(C(=O)CC#N)C[C@@H]1N(C)c1ncnc2[nH]ccc12 [Tofacitinib, reference compound] , is the recorded inhibition at 1 µM at or above 40%? satisfied

Hi team, for "Cc1nc(NC(=O)c2cc3ccccc3[nH]2)c(C)c(C)c1O" , is the recorded inhibition at 1 µM at or above 40%? not satisfied

Hi team, for "Cc1nc(NC(=O)c2cc3cc(C(F)(F)F)ccc3[nH]2)c(C)c(C)c1O" , is the recorded inhibition at 1 µM at or above 40%? satisfied

Hi team, for "Cc1nc(NC(=O)c2cc3ccc(Cl)cc3[nH]2)c(C)c(C)c1O" , is the recorded inhibition at 1 µM at or above 40%? not satisfied

Hi team, for "Cc1nc(NC(=O)c2sc3cc(F)ccc3c2Cl)c(C)c(C)c1OC(=O)c1ccc(F)cc1" , is the recorded inhibition at 1 µM at or above 40%? not satisfied

Hi team, for "Cc1nc(NC(=O)c2sc3cc(F)ccc3c2Cl)c(C)c(C)c1OC(=O)c1ccc(F)cn1" , is the recorded inhibition at 1 µM at or above 40%? not satisfied

Hi team, for "Cc1nc(NC(=O)c2sc3ccccc3c2Cl)c(C)c(C)c1O" , is the recorded inhibition at 1 µM at or above 40%? not satisfied

Hi team, for "COc1cccc2cc(C(=O)Nc3nc(C)c(O)c(C)c3C)oc12" , is the recorded inhibition at 1 µM at or above 40%? satisfied

Hi team, for "Cc1ccc2[nH]c(C(=O)Nc3nc(C)c(O)c(C)c3C)cc2c1" , is the recorded inhibition at 1 µM at or above 40%? satisfied

Hi team, for "COc1cc2cc(C(=O)Nc3nc(C)c(O)c(C)c3C)[nH]c2cc1OC" , is the recorded inhibition at 1 µM at or above 40%? not satisfied

Hi team, for "Cc1nc(NC(=O)c2sc3cc(F)ccc3c2Cl)c(C)c(C)c1OCC(=O)NCc1ccccc1" , is the recorded inhibition at 1 µM at or above 40%? satisfied

Hi team, for "Cc1nc(NC(=O)c2cc3ccccc3n2C)c(C)c(C)c1O" , is the recorded inhibition at 1 µM at or above 40%? not satisfied

Hi team, for "COc1ccc(C(=O)Oc2c(C)nc(NC(=O)c3sc4cc(F)ccc4c3Cl)c(C)c2C)cc1" , is the recorded inhibition at 1 µM at or above 40%? satisfied

Hi team, for "COc1ccc2[nH]c(C(=O)Nc3nc(C)c(O)c(C)c3C)cc2c1" , is the recorded inhibition at 1 µM at or above 40%? not satisfied
